- test system: control isotype anti-KLH IgM Ab (C48-6; BD Bioscience-Pharmingen)
- experiment description: phage ELISA, coated control IgM
Bridges are numbered along the chain shown (N, C = ends). Where no end group is shown, it is not given here.
Answer FALSE if OD (binding of phages to control IgM) is under 0.04 OD, and TRUE if it is 0.04 OD or more.

Check if OD (binding of phages to control IgM) >= 0.04 OD (inclusive). Item: ACNNWNMPLCGGGS (peptide, not shown: large carriers, disulfide 2-10; also: C-terminus fused to phage pIII) [phage clones Ca1, Ca7]
TRUE

Is it the case that ACNNRNMPLCGGGS (peptide, not shown: large carriers, disulfide 2-10; also: C-terminus fused to phage pIII) [phage clones Ca59, Cb1] has OD (binding of phages to control IgM) reaching or exceeding 0.04 OD?
TRUE

Could you tell me if the measured OD (binding of phages to control IgM) of ACNNSHMPLCGGGS (peptide, not shown: large carriers, disulfide 2-10; not fully specified) [phage clones Ca9, Cb3, Ca8, Ca10] reaches 0.04 OD or more?
TRUE

Could you verify whether the entry ESWTNSWAHYFGGGGS (peptide, not shown: large carriers) [phage clones A36, B41, M35] shows OD (binding of phages to control IgM) of no less than 0.04 OD?
FALSE

OD (binding of phages to control IgM) >= 0.04 OD for HSWSNYWGHQHAGGGS (peptide, not shown: large carriers) [phage clone A32] ?
FALSE

Cited source: patent US20150056209A1
